- assayComment: chemical genetic growth profiling, strain panel (AID 1159580);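 further: tested at 20 µM; growth read once vehicle control cultures reached saturation at 30 °C; 1 = growth at the plate median or of vehicle wells; lower values mean less growth of the strain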
- studyConditions: S. cerevisiae deletion strains, growth OD, locus YCR088W, strain abp1, stronger effect = lower value
Out of some 5,500 compounds screened, about 2,000 (36%) were called active. About 18% were inconclusive and are not listed. The list shows a part of the results.
recordedMetric: normalized growth
I'd appreciate a reply containing only the number, no unit.

# compound, normalized growth
data = [
    ("CC1(C)C(C(Cl)Cl)C2(Cl)C(Cl)C(Cl)C1(Cl)C2(Cl)Cl (centres undefined)", 0.989),
    ("CCC(Cc1c(I)cc(I)c(N)c1I)C(=O)O (centres undefined)", 0.935),
]

Using the record for Nc1ncnc2c1ncn2C1C[C@H](O)[C@@H](CO)O1 (some centres undefined) , report its normalized growth.
1.01
